Listed next: entries and their corresponding IC50.
Target: ACE (Oryctolagus cuniculus)
Construct: The employed ACE is the rabbit lung enzyme obtained from Sigma-Aldrich; purchased Sigma-Aldrich; host or cells: rabbit lung (tissue-derived enzyme)
Sequence (P12822 34-1310): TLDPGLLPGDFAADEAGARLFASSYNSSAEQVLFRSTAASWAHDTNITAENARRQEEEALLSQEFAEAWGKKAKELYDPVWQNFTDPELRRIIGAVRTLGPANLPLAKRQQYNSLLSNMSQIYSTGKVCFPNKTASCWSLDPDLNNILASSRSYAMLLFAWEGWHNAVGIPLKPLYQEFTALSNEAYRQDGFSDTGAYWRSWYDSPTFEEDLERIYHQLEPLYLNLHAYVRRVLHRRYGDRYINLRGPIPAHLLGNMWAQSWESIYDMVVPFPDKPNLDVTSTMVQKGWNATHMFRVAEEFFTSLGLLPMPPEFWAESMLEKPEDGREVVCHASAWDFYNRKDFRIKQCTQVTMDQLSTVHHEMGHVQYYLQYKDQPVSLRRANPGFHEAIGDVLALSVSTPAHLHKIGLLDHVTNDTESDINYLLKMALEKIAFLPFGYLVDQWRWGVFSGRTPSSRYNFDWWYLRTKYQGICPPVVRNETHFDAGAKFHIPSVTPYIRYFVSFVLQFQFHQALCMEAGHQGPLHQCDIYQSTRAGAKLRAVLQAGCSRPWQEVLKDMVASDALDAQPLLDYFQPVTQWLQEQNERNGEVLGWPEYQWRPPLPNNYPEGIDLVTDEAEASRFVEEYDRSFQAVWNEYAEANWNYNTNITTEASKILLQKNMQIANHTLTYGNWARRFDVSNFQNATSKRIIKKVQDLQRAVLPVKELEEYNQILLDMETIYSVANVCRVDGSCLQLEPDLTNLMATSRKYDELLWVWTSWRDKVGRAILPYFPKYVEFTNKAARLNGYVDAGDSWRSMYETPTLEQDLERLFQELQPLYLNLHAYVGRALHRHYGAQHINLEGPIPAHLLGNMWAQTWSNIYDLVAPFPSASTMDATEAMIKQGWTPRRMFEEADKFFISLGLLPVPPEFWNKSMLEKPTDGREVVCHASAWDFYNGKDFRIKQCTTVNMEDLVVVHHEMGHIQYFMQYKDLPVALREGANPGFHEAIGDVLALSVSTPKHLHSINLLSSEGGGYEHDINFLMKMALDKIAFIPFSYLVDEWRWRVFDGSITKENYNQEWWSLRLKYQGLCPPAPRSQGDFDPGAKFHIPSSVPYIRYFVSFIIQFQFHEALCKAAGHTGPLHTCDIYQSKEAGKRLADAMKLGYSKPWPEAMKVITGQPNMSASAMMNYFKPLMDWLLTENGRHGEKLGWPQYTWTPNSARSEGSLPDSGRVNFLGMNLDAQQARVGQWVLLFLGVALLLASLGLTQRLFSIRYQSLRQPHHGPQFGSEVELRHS
Assay: ACE activity test (substrate HHL, hippuric acid quantified by RP HPLC)
Format: biochemical, rabbit
Settings: dipeptides from Bachem, test as in Example 2; read-out: IC50 [μM] ACE-inhibiting activity
Description: The determination of the ACE activity of the protein hydrolysates was carried out similar to a test disclosed by Cushman and Cheung in […] (Cushman, D. W. and Cheung, H.-S. Spectrophotometric Assay and Properties of Angiotensin-Converting Enzyme of Rabbit Lung, Biochemical Pharmacology, 1971, 20, 1637-1648). […] Since hippuric acid is UV-active (λmax=228 nm), it is possible, based on its contents determined by RP HPLC, to define the conversion rate and thus the enzyme activity. […]
Where a SMILES comes first, the peptide text is derived from it.
Provide the reading as a plain figure in µM.

>>> val("CC[C@H](C)[C@H](N)C(=O)N[C@@H](Cc1c[nH]c2ccccc12)C(=O)O")
0.7

# ---- query compound ----
Looking up CC(C)C[C@H](NC(=O)[C@@H](N)Cc1c[nH]c2ccccc12)C(=O)O [Trp-Leu] (H-Trp-Leu-OH; N-terminus and C-terminus assumed) , I see its IC50 listed as 10
